Ki listing for selected compounds.
Molecular target: UniProt P33535
Sequence (P33535 whole entry): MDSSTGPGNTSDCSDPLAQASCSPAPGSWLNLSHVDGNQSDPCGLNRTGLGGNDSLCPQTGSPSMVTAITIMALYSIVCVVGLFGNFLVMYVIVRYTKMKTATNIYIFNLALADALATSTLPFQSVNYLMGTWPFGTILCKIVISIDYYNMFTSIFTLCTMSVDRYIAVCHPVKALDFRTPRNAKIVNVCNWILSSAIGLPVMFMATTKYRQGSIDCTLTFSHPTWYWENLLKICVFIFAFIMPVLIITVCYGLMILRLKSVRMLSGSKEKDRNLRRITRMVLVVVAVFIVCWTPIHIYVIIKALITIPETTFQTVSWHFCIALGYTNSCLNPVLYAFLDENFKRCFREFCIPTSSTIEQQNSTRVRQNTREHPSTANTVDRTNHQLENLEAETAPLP
Assay: mu-2 receptor binding affinity in rat brain by 3H [d-Ala2, (N-Me)Phe4, Gly5-ol] enkephalin displacement.
Assay type: tissue-based
I only need the number, in nM, no unit after it.

The cases that follow already have their Ki on record.
| compound | tested_system | Ki, nM |
| --- | --- | --- |
| O=C(O)[C@@H]1O[C@@H](O[C@H]2C=C[C@H]3[C@H]4Cc5ccc(O)c6c5C3(CCN4CC3CC3)[C@H]2O6)[C@@H](O)[C@@H](O)[C@@H]1O | UniProt P33535 | 3.5 |
| CN1CCC23c4c5ccc(O)c4O[C@H]2[C@@H](O[C@@H]2O[C@@H](CO)[C@@H](O)[C@H](O)[C@@H]2O)CC[C@H]3[C@H]1C5 | UniProt P33535 | 2.5 |
| CN1CCC23c4c5ccc(O)c4O[C@H]2[C@@H](O[C@@H]2O[C@H](C(=O)O)[C@@H](O)[C@H]2O)C=C[C@H]3[C@H]1C5 | UniProt P33535 | 44 |
| O=C(O)CN1CC[C@]23c4c5ccc(O)c4O[C@H]2[C@@H](O[C@@H]2O[C@@H](C(=O)O)[C@@H](O)[C@H](O)[C@@H]2O)C=C[C@H]3[C@H]1C5 | UniProt P33535 | 1620 |
| CN1CCC23c4c5ccc(O)c4O[C@H]2[C@@H](OC2OC(CO)[C@H](O)C(O)C2O)C=C[C@H]3[C@H]1C5 (stereo partly drawn) | UniProt P33535 | 4.8 |
| CN1CCC23c4c5ccc(O)c4O[C@H]2[C@@H](O[C@@H]2O[C@@H](C(=O)O)[C@@H](O)[C@H](O)[C@@H]2O)CC[C@H]3[C@H]1C5 | UniProt P33535 | 5.7 |
| COc1ccc2c3c1O[C@H]1[C@@H](O[C@@H]4O[C@@H](C(=O)O)[C@@H](O)[C@H](O)[C@@H]4O)C=C[C@H]4[C@@H](C2)N(C)CC[C@@]341 | UniProt P33535 | 5700 |

Now consider the entry below.
So what's the measured Ki for this one? O=C(O)[C@@H]1O[C@@H](O[C@H]2C=C[C@H]3[C@H]4Cc5ccc(O)c6c5[C@@]3(CCN4)[C@H]2O6)[C@@H](O)[C@@H](O)[C@@H]1O
37
